Origin of values: BindingDB's records for doi:10.1021/jm00089a014

# measurement_target: Integrin alpha-IIb/beta-3 (Homo sapiens, UniProt P08514+P05106)
# Sequence (P05106 27-788 limits assumed): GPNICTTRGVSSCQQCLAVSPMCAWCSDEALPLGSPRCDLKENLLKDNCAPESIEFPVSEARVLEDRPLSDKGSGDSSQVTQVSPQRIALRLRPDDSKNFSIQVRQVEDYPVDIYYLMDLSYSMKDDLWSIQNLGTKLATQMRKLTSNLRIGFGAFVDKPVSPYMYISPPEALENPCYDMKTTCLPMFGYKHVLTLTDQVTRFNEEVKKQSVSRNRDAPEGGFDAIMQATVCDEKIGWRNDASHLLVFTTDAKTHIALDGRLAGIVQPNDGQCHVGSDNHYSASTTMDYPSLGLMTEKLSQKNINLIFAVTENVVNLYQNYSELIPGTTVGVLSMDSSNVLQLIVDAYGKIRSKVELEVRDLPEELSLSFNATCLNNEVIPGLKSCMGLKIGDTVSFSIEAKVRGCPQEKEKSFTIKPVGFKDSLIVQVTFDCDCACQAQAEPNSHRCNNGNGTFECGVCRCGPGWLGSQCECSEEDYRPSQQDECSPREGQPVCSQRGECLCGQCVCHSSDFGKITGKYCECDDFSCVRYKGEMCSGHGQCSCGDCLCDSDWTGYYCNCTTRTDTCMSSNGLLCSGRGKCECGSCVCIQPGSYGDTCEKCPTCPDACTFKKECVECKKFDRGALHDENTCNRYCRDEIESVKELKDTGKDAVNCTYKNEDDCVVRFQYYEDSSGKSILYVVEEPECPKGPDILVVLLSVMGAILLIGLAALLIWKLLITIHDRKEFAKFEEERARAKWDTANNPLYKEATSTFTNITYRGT
# Sequence (P08514 32-887 limits assumed): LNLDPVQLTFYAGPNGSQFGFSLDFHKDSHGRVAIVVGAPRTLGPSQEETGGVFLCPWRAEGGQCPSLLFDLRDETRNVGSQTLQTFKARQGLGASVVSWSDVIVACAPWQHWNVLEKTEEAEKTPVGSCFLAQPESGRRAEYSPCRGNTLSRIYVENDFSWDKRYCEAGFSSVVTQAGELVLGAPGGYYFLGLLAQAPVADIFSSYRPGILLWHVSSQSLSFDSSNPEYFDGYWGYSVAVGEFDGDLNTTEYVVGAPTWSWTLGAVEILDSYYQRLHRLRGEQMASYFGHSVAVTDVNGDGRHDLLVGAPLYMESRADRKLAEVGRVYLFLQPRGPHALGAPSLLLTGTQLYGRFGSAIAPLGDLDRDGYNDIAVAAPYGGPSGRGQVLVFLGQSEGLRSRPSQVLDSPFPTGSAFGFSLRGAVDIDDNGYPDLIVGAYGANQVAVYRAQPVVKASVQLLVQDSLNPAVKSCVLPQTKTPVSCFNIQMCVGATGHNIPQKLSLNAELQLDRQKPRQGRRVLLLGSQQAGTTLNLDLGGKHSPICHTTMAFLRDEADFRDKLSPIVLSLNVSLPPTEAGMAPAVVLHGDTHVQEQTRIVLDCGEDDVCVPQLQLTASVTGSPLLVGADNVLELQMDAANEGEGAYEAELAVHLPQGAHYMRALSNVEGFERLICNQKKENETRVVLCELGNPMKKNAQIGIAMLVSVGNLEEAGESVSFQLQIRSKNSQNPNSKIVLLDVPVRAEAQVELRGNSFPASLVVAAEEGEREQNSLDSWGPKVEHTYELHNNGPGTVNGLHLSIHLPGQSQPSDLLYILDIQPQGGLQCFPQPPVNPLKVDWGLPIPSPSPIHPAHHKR
# Sequence (P08514 891-1039 limits assumed): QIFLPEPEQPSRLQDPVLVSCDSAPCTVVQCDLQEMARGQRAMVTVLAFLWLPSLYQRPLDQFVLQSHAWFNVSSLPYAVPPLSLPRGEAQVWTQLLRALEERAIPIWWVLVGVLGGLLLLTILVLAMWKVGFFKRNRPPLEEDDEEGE
# assay_protocol: Inhibition of ADP-induced platelet aggregation in human platelet-rich plasma
*1 amine or outer side, *2 acyl side, *3 side chain or, on linkers, in order; H or OH if unused. Where a SMILES comes first, the peptide text is derived from it. Bridges are numbered along the chain shown (N, C = ends). [ ]: non-standard residue; d: D form. Cys(O)(CH2CO) = O=C([C@H](C[S+]([O-])CC(=O)[*:3])N[*:1])[*:2]
Doc: threshold 1000 nM (exclusive). Items with IC50 beneath it return true (1); others return false (0).

Worked set:
| compound | cat |
| --- | --- |
| N=C(N)NCCC[C@@H]1NC(=O)CNC(=O)[C@H](Cc2ccccc2)SC[C@@H](C(=O)O)NC(=O)[C@H](CC(=O)O)NC(=O)CNC1=O | false (0) |
| N=C(N)NCCC[C@@H]1NC(=O)CNC(=O)CSC[C@@H](C(=O)O)NC(=O)[C@H](CC(=O)O)NC(=O)CNC1=O ({CH2CO}-GRGDC-OH; thioether N-5) | false (0) |
| N=C(N)NCCC[C@@H]1NC(=O)[C@H](CCCCN)NC(=O)CSC[C@@H](C(=O)O)NC(=O)[C@H](CC(=O)O)NC(=O)CNC1=O | true (1) |
| N=C(N)NCCC[C@@H]1NC(=O)[C@H](Cc2ccc(O)cc2)NC(=O)C[S+]([O-])C[C@@H](C(=O)O)NC(=O)[C@H](CC(=O)O)NC(=O)CNC1=O (some centres undefined) | true (1) |
| N=C(N)NCCC[C@@H]1NC(=O)CNC(=O)C(c2cccc3ccccc23)SC[C@@H](C(=O)O)NC(=O)[C@H](CC(=O)O)NC(=O)CNC1=O (some centres undefined) | true (1) |

Q: Answer whether the compound N=C(N)NCCC[C@@H]1NC(=O)CNC(=O)CCSC[C@@H](C(=O)O)NC(=O)[C@H](CC(=O)O)NC(=O)CNC1=O has IC50 strictly less than 1000 nM
A: false (0)

Q: Answer whether the compound N=C(N)NCCC[C@@H]1NC(=O)[C@H](Cc2ccccc2)NC(=O)CSC[C@@H](C(=O)O)NC(=O)[C@H](CC(=O)O)NC(=O)CNC1=O has IC50 strictly less than 1000 nM
A: true (1)

Q: Answer whether the compound CC(=O)NCC(=O)N[C@@H](CCCNC(=N)N)C(=O)NCC(=O)N[C@@H](CC(=O)O)C(=O)N[C@H](C(N)=O)C(C)C (Ac-GRGDV-NH2) has IC50 strictly less than 1000 nM
A: false (0)

Q: Answer whether the compound N=C(N)NCCC[C@@H]1NC(=O)CNC(=O)C(c2ccc(-c3ccccc3)cc2)SC[C@@H](C(=O)O)NC(=O)[C@H](CC(=O)O)NC(=O)CNC1=O (some centres undefined) has IC50 strictly less than 1000 nM
A: false (0)

Q: Answer whether the compound N=C(N)NCCC[C@@H]1NC(=O)[C@H](CC(=O)O)NC(=O)C[S+]([O-])C[C@@H](C(=O)O)NC(=O)[C@H](CC(=O)O)NC(=O)CNC1=O (some centres undefined) (DRGD[Cys(O)(CH2CO)]-OH; lactam N-5) has IC50 strictly less than 1000 nM
A: false (0)

====

# measurement_target: Integrin alpha-IIb/beta-3 (Homo sapiens, UniProt P08514+P05106)
# assay_protocol: Inhibition of ADP-induced platelet aggregation in human platelet-rich plasma
pIC50: −log10 of the molar value. *1 amine or outer side, *2 acyl side, *3 side chain or, on linkers, in order; H or OH if unused. Where a SMILES comes first, the peptide text is derived from it. Bridges are numbered along the chain shown (N, C = ends). [ ]: non-standard residue; d: D form. Cys(O)(CH2CO) = O=C([C@H](C[S+]([O-])CC(=O)[*:3])N[*:1])[*:2]
Everything with pIC50 lower than 5 is Not fulfilled; everything else, including exactly 5, is Fulfilled.

Worked set:
| molecule | cat |
| --- | --- |
| CC(C)C[C@@H]1NC(=O)C[S+]([O-])C[C@@H](C(=O)O)NC(=O)[C@H](CC(=O)O)NC(=O)CNC(=O)[C@H](CCCNC(=N)N)NC1=O (some centres not stated) (LRGD[Cys(O)(CH2CO)]-OH; lactam N-5) | Fulfilled |
| C[C@H]1NC(=O)CSC[C@@H](C(=O)O)NC(=O)[C@H](CC(=O)O)NC(=O)CNC(=O)[C@H](CCCNC(=N)N)NC1=O ({CH2CO}-[dA]RGDC-OH; thioether N-5) | Fulfilled |
| N=C(N)NCCC[C@H](N)C(=O)NCC(=O)N[C@@H](CC(=O)O)C(=O)N[C@@H](Cc1ccc(O)cc1)C(=O)O (H-RGDY-OH) | Not fulfilled |
| CCCC1SC[C@@H](C(=O)O)NC(=O)[C@H](CC(=O)O)NC(=O)CNC(=O)[C@H](CCCNC(=N)N)NC(=O)CNC1=O (some centres not stated) | Fulfilled |
| N=C(N)NCCC[C@@H]1NC(=O)[C@@H](Cc2c[nH]c3ccccc23)NC(=O)CSC[C@@H](C(=O)O)NC(=O)[C@H](CC(=O)O)NC(=O)CNC1=O | Fulfilled |

Q: Item N=C(N)NCCC[C@@H]1NC(=O)[C@H](CO)NC(=O)CSC[C@@H](C(=O)O)NC(=O)[C@H](CC(=O)O)NC(=O)CNC1=O with pIC50 of 5 or above?
A: Fulfilled

Q: Item CC(=O)NCC(=O)N[C@@H](CCCNC(=N)N)C(=O)NCC(=O)N[C@@H](CC(=O)O)C(=O)N[C@H](C(=O)O)C(C)C (Ac-GRGDV-OH) with pIC50 of 5 or above?
A: Not fulfilled
